Reference source for all entries: paper PMC5494507

Please go through the items and note down their pIC50.
System: cNOTCH3sub
PROTOCOL: Cell-based γ-secretase cleavage assay, cNOTCH3sub in H4 cells (Aβ-like peptide ELISA)
Design: species or system human
TEST_CONTEXT: Aβ-like peptide in media, GSI overnight, read-out: IC50 cNOTCH3sub
pIC50 is defined as minus the log10 of a concentration measured in mol/L.

Query: pIC50; subject: CCC[C@H](N[C@H]1CCc2cc(F)cc(F)c2C1)C(=O)Nc1cn(C(C)(C)CNCC(C)(C)C)cn1
8.92

# iterate: O=C(O)CC[C@H]1CC[C@@](c2cc(F)ccc2F)(S(=O)(=O)c2ccc(Cl)cc2)CC1
6.43

# iterate: C[C@H](NC(=O)Cc1cc(F)cc(F)c1)C(=O)N[C@H](C(=O)OC(C)(C)C)c1ccccc1
6.21

# iterate: CN1C(=O)[C@@H](NC(=O)[C@H](CCC(F)(F)F)[C@H](CCC(F)(F)F)C(N)=O)N=C(c2ccccc2)c2ccccc21
8.94

# iterate: CC(C)[C@H](O)C(=O)N[C@@H](C)C(=O)N[C@@H]1C(=O)N(C)CCc2ccccc21
6.41

# iterate: CC(C)(C(=O)NCC(F)(F)C(F)(F)F)C(=O)N[C@@H]1C(=O)Nc2ccccc2-c2ccccc21
7.70

* * *

Test system: cNOTCH1sub
PROTOCOL: Cell-based γ-secretase cleavage assay, cNOTCH1sub in H4 cells (Aβ-like peptide ELISA)
Set-up: species or system human
TEST_CONTEXT: Aβ-like peptide in media, GSI overnight
Could you please mark MET for values of IC50 below 5 nM and NOT MET for values at or above it?

hey, is IC50 for CC(C)(C(=O)NCC(F)(F)C(F)(F)F)C(=O)N[C@@H]1C(=O)Nc2ccccc2-c2ccccc21 [RO4929097] lower than 5 nM or not?
MET

# iterate: O=C(O)CC[C@H]1CC[C@@](c2cc(F)ccc2F)(S(=O)(=O)c2ccc(Cl)cc2)CC1 [MK‐0752]
NOT MET

# iterate: CN1C(=O)[C@@H](NC(=O)[C@H](CCC(F)(F)F)[C@H](CCC(F)(F)F)C(N)=O)N=C(c2ccccc2)c2ccccc21 [BMS‐906024]
MET

# iterate: CC(C)[C@H](O)C(=O)N[C@@H](C)C(=O)N[C@@H]1C(=O)N(C)CCc2ccccc21 [Semagacestat]
NOT MET

# iterate: CCC[C@H](N[C@H]1CCc2cc(F)cc(F)c2C1)C(=O)Nc1cn(C(C)(C)CNCC(C)(C)C)cn1 [PF‐3084014]
MET

* * *

Protein target, amino acids: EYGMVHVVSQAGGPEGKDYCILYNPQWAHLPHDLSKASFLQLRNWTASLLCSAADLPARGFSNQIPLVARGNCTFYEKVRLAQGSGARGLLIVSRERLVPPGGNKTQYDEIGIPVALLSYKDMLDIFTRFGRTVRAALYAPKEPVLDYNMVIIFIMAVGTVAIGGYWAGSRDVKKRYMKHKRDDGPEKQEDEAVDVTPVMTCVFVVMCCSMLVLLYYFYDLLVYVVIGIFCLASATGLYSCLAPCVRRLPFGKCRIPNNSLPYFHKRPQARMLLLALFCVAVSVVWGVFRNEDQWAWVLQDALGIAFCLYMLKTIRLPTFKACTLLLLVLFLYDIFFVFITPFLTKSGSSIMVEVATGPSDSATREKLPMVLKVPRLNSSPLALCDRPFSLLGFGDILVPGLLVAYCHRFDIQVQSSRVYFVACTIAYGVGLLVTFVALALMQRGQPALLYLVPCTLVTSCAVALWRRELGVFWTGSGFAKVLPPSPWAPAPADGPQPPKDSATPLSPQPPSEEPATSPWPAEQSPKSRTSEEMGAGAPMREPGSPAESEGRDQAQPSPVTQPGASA
QUANTITY_MEASURED: pIC50
pIC50 is defined as minus the log10 of a concentration measured in mol/L.

Query: pIC50; subject: CN1C(=O)[C@@H](NC(=O)[C@H](CCC(F)(F)F)[C@H](CCC(F)(F)F)C(N)=O)N=C(c2ccccc2)c2ccccc21 [BMS‐906024]
7.55

# iterate: CC(C)(C(=O)NCC(F)(F)C(F)(F)F)C(=O)N[C@@H]1C(=O)Nc2ccccc2-c2ccccc21 [RO4929097]
7.14

# iterate: CCC[C@H](N[C@H]1CCc2cc(F)cc(F)c2C1)C(=O)Nc1cn(C(C)(C)CNCC(C)(C)C)cn1 [PF‐3084014]
5.94
